- TEST METHOD NOTES: Pharmacokinetics in male CD1 mice
- Assay type: in vivo
- CONDITIONS USED: mouse, plasma; IV, 5 mg/kg, male CD1 mice
REPORTED ENDPOINT: Tmax (min)
Reply with just the number (in min).

Q: Item under review: O=C(CCCOc1ccc(I)cc1)NN1CCCOC1=O . Reported Tmax?
A: 4.8

* * *

- Tested on: C. violaceum CV026 QS
- TEST METHOD NOTES: Half-maximal inhibitory concentration against C. violaceum CV026 QS (suppression of violacein production)
- Assay type: cell-based
- CONDITIONS USED: Chromobacterium violaceum; C6-HSL-induced violacein production, 12 h; mean ± SD of three independent tests; read-out: IC50, anti-CV026 QS activity
Decision: IC50 beneath 100 µM gives label 1; IC50 meeting or exceeding 100 µM gives label 0.

Q: Determine if Cc1ccc(OCCCC(=O)NN2CCOC2=O)c(C)c1 [Y-40] shows IC50 strictly lower than 100 µM.
A: label 0

Q: Determine if CCc1ccc(OCCCC(=O)NN2CCOC2=O)cc1 [Y-19] shows IC50 strictly lower than 100 µM.
A: label 0

Q: Determine if COc1ccc(OCCCC(=O)NN2CCOC2=O)cc1 [Y-3] shows IC50 strictly lower than 100 µM.
A: label 0

Q: Determine if CC(C)(C)Oc1ccc(OCCCC(=O)NN2CCOC2=O)cc1 [Y-18] shows IC50 strictly lower than 100 µM.
A: label 0

Q: Determine if O=C(CCCOc1ccc(-c2ccccc2)cc1)NN1CCOC1=O [Y-5] shows IC50 strictly lower than 100 µM.
A: label 0

Q: Determine if O=C(CCCOc1ccc(Br)cc1)NN1CCCOC1=O [Y-6] shows IC50 strictly lower than 100 µM.
A: label 0

Q: Determine if O=C(CCCSc1ccc(Br)cc1)NN1CCOC1=O [Y-39] shows IC50 strictly lower than 100 µM.
A: label 1

Q: Determine if O=C(CCCOc1ccc(C(F)(F)F)cc1)NN1CCOC1=O [Y-25] shows IC50 strictly lower than 100 µM.
A: label 1
